# credit: the supplement of paper PMC6555819

test system: LXRa homodimer (NR concentration 270 nM); test: PBM binding z-score (relative to random genomic background probes); higher = stronger binding; sequences stand for … in GC…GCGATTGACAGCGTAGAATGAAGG
Metric Name: PBM binding z-score

[ask] State its PBM binding z-score on LXRa homodimer (NR concentration 270 nM): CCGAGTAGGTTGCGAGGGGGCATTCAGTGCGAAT
[reply] 0.489

[ask] What do you have for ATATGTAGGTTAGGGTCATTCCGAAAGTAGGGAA ?
[reply] 1.27

[ask] What do you have for CCGAGTAGGTTACGAGGAGGCATTCAGTGCGAAT ?
[reply] -0.319

[ask] What do you have for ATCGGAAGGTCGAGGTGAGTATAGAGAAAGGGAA ?
[reply] -0.107

[ask] What do you have for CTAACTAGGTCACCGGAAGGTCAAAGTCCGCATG ?
[reply] 5.51

[ask] What do you have for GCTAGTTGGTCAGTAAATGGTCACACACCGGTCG ?
[reply] -0.00637

[ask] What do you have for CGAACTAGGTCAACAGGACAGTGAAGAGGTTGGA ?
[reply] 0.16

[ask] What do you have for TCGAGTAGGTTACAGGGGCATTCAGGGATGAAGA ?
[reply] 0.219

[ask] What do you have for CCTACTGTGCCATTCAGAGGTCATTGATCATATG ?
[reply] 6.87

[ask] What do you have for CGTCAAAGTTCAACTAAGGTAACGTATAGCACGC ?
[reply] 4.63

[ask] What do you have for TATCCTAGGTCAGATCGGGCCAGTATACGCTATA ?
[reply] 2.41

[ask] What do you have for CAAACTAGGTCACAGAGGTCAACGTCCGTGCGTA ?
[reply] 6.37
